Reference source: PubChem BioAssay

test: probe aInhba binding on compound microarray – biochemical, small-molecule microarray, 635/667 nm fluorescence, primary screen (AID 1148);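 also: score merges 667nm spot fluorescence with signal-to-noise for antibody binding to printed compounds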
recorded_conditions: higher = more signal
Items are presented alongside their recorded composite z-score.
Lab note: record just the number, no unit beside it.

{"columns": ["compound", "composite z-score"],
 "data": [
  ["COC(=O)c1c(CC[C@@H](CO)NC(=O)NCCc2c[nH]c3ccccc23)oc(C(=O)Cc2ccccc2)c1C(=O)OC", -0.188]
]}

Fill in: composite z-score of `C[N+](C)(C)CCCCCCNC(=O)[C@H]1C[C@H]2C(=O)N[C@@H](Cc3ccccc3)C(=O)N2[C@H]1c1cccc(OCCO)c1` is ___
0.0176

Fill in: composite z-score of `O=C(NCc1ccccc1)[C@@H]1c2ccccc2C(=O)N(C2Cc3ccccc3C2)[C@H]1c1ccc(CO)cc1` is ___
0.196

Fill in: composite z-score of `CO[C@H]1O[C@H](CO)[C@@H](OC(=O)Nc2cccc(F)c2)[C@H](OC(=O)Nc2ccccc2)[C@H]1OC(=O)Nc1ccccc1` is ___
0.226

Fill in: composite z-score of `COC(=O)[C@@]1(Cc2ccc(OC)cc2)[C@H]2c3cc(C(=O)N(C)C)n(Cc4ccc(C(F)(F)F)nc4)c3C[C@H]2CN1C(=O)c1ccccc1` is ___
0.397

Fill in: composite z-score of CCCCC(O)C1C=CC2C(=O)N(C)C(=O)C2N1N1CCCCC1 (configuration not stated) is ___
0.196

Fill in: composite z-score of COc1cc2c(cc1O)C(c1cccs1)N(Cc1ccc([N+](=O)[O-])o1)CC2 (configuration not stated) is ___
0.167

Fill in: composite z-score of `CC(=O)NCCCC[C@@H]1NC(=O)[C@H]2C[C@@H](C(=O)NCCCCCNC(=O)CS)[C@@H](c3ccc(O)cc3)N2C1=O` is ___
0.0391

Fill in: composite z-score of `C=CCNC(=O)[C@@H]1[C@H]2C(=O)O[C@H](c3ccccc3)[C@H](c3ccccc3)N2[C@H](c2ccc(OCCO)cc2)[C@@]12C(=O)N(C(=O)OCCOC)c1ccc(C#CCC(C(=O)OC)C(=O)OC)cc12` is ___
0.322

Fill in: composite z-score of CCOc1ccc(N2C(=O)CSC2c2cccc([N+](=O)[O-])c2)cc1 (configuration not stated) is ___
-0.0448

----------
test: inhibition of PAO1 biofilm formation – strain PAO1, LB-PBS medium, absorbance 600 nm, primary screen (AID 1176); also: test concentration not given here
recorded_conditions: P. aeruginosa PAO1 growth/biofilm, A600, 12 h; higher = more signal
property: z-score
Lab note: record just the number, no unit beside it.

Completed entries (count: 5):
{"columns": ["compound", "z-score"],
 "data": [
  ["[N-]=[N+]=Nc1ccccc1C[C@@]1(C(=O)N2CCCCC2)N=C(c2ccc(OCCCO)cc2)O[C@@H]1c1ccccc1N=[N+]=[N-]", 0.578],
  ["O=C1NC(=O)C2C1C=CC(C(O)c1ccc(I)cc1)N2Nc1ccc(Cl)cc1Cl (stereo not drawn)", 2.06],
  ["NC(=O)[C@@H]1[C@H]2C(=O)O[C@H](c3ccccc3)[C@H](c3ccccc3)N2[C@H](c2ccc(OCCO)cc2)[C@@]12C(=O)Nc1ccc(C#CC3=CCCCC3)cc12", 1.82],
  ["C=CC1c2cc(O)c(OC)cc2CCN1Cc1cccc(OC(F)(F)F)c1 (stereo not drawn)", 0.0898],
  ["Cc1ccc(S[C@]2(C(=O)O)CC(=O)N(C(C)C)[C@@H]2c2ccc(CO)cc2)cc1", 1.02]
]}

Fill in: z-score of CC(C)N1CC=CC23O[C@@H]4C=CCOC(=O)[C@@H]4[C@H]2C(=O)N(CCCCCO)[C@@H]3C1=O (stereo partly drawn) is ___
0.897

Fill in: z-score of CC(=O)n1cc(C(O)C2C=CC3C(=O)NC(=O)C3N2Nc2ccccn2)c2ccccc21 (stereo not drawn) is ___
1.33

Fill in: z-score of `CC(C)CN1C(=O)[C@@]2(c3ccc([N+](=O)[O-])cc3)CC(=O)N(C3CCCCC3)[C@@H]2c2ccc(CO)cc21` is ___
0.292

----------
Test system: Neuregulin-1 EGF-like domain
test: small molecules binding NRG1 EGF domain – biochemical, small-molecule microarray, 635 nm fluorescence, primary screen (AID 1081);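 also: binding of the protein to compounds printed on small-molecule microarray slides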
recorded_conditions: higher = more signal
Short version: composite z-score at least 0.6 is true (1), less is false (0).

{"columns": ["molecule", "label"],
 "data": [
  ["COC(=O)[C@]1(CCC(=O)OC(C)(C)C)N=C(c2ccc(OCCCO)cc2)O[C@@H]1c1ccccc1", "true (1)"],
  ["C#CCN1[C@@H](Cc2ccc(O)cc2)C(=O)O[C@H](Cc2ccccc2)[C@@H]1/C=C/C1CC1", "false (0)"],
  ["CCCCCCCCCCC(O)C1C=CC2C(=O)NC(=O)C2N1Nc1ccc(Cl)cc1Cl (stereo not given)", "false (0)"],
  ["COCC(=C=CC[C@H](O)c1cccc(OCCO)c1)C[C@H](O)c1cc(Cl)cc(Cl)c1O", "true (1)"],
  ["O=C(O)C1N=C(c2ccc(OCCCO)cc2)N(c2ccccc2)O1 (stereo not given)", "false (0)"]
]}

Kindly determine if composite z-score recorded for `O[C@@H](Cc1ccccc1)[C@@H](/C=C/C1CC1)NCc1cccc(Cl)c1` is above or exactly 0.6.
false (0)

Kindly determine if composite z-score recorded for CC1CC/C=C\[C@H]2OC34C=CCN(Cn5nnc6ccccc65)C(=O)[C@H]3N(CCCCCO)C(=O)[C@@H]4C2C(=O)O1 (stereo not given in full) is above or exactly 0.6.
false (0)

Kindly determine if composite z-score recorded for CC(CO)N1C(=O)[C@@H]2C3C(=O)OCCC/C=C\[C@H]3OC23C=CCN(CCN2CCOCC2)C(=O)[C@@H]13 (stereo not given in full) is above or exactly 0.6.
false (0)

Kindly determine if composite z-score recorded for `COc1ccc([Si](C)(C)[C@@H]2[C@@H](CCn3cc(CCO)nn3)O[C@]3(C(=O)N(Cc4cccc(N5C(=O)c6cccc7cccc5c67)c4)c4ccccc43)[C@H]2C)cc1` is above or exactly 0.6.
true (1)

Kindly determine if composite z-score recorded for `CCOC(=O)[C@H]1C/C=C/C[C@H](C(=O)OCC)C(=O)O[C@H]2[C@@H](OC)O[C@H](CO)[C@@H](OC(=O)c3ccc(Br)cc3)[C@@H]2OC1=O` is above or exactly 0.6.
false (0)

Kindly determine if composite z-score recorded for `COc1ccc(C(=O)Nc2cccc(CN3C(=O)[C@]4(O[C@H](CCn5cc(CCO)nn5)[C@@H]([Si](C)(C)c5ccc(OC)cc5)[C@@H]4C)c4ccccc43)c2)cc1` is above or exactly 0.6.
true (1)

Kindly determine if composite z-score recorded for `COC(=O)[C@]1(Cc2ccccc2)N=C(c2ccc(OCCCO)cc2)O[C@@H]1c1ccccc1N=[N+]=[N-]` is above or exactly 0.6.
true (1)

Kindly determine if composite z-score recorded for `CC(C)(C)OC(=O)CC[C@]1(C(N)=O)N=C(c2ccc(OCCCO)cc2)O[C@H]1c1ccccc1` is above or exactly 0.6.
true (1)

Kindly determine if composite z-score recorded for `CCOC(=O)C1=CC[C@@H](c2ccc(C(F)(F)F)cc2)N(S(=O)(=O)c2ccc(C)cc2)[C@H]1c1ccccc1` is above or exactly 0.6.
true (1)

Kindly determine if composite z-score recorded for `CCOC(=O)C[C@H]1[C@H](OC(=O)c2ccc(C(=O)c3ccccc3)cc2)[C@@H](NC(=O)Cc2ccc(OC)cc2)c2cc(OCCCO)ccc2N1C(=O)c1ccc2ccccc2n1` is above or exactly 0.6.
false (0)

Kindly determine if composite z-score recorded for `CCCC[C@H]1C[C@@H]1[C@@H]1N(P(=O)(c2ccccc2)c2ccccc2)C[C@@](O)(c2ccccc2)CC12CC2` is above or exactly 0.6.
false (0)

Kindly determine if composite z-score recorded for `CCOC(=O)C[C@H]1[C@H](OC(=O)c2cc3ccccc3oc2=O)[C@@H](NC(=O)CC(C)C)c2cc(OCCCO)ccc2N1C(=O)c1ccccc1` is above or exactly 0.6.
false (0)

Kindly determine if composite z-score recorded for O=C1OCCC=C[C@H]2OC34C=CCN(c5ccc(Cl)cc5)C(=O)[C@H]3N(CCCO)C(=O)[C@@H]4C12 (stereo not given in full) is above or exactly 0.6.
false (0)

Kindly determine if composite z-score recorded for `C=C(CCCC)/C(=C/C[C@@H](OC(C)=O)c1cccc(OCCO)c1)c1cnc2ccccc2c1` is above or exactly 0.6.
false (0)

----------
test: binders from COS7 lysate, DM2A8 probe, primary screen, torsin A project, cell lysate, small-molecule microarray, fluorescence 635/667 (AID 1065)
recorded_conditions: higher = more signal, COS7 lysate expressing mutant human TOR1A
Short version: composite z-score at least 0.4 is Met, less is Not met.

{"columns": ["molecule", "label"],
 "data": [
  ["CCOc1cc(C(O)C2C=CC3C(=O)N(c4ccccc4)C(=O)C3N2Nc2ccc(C(C)C)cc2)ccc1O (centres undefined)", "Not met"],
  ["COc1ccc([Si](C)(C)[C@H]2[C@H](CC(=O)N3CCC[C@H]3CO)O[C@@]3(C(=O)N(Cc4cccc(N5CCOC5=O)c4)c4ccccc43)[C@@H]2C)cc1", "Not met"],
  ["C=C(CCCC)/C(=C/C[C@H](OC(=O)c1ccncc1)c1ccc(OCCO)cc1)c1cc(C(=O)OC)ccc1OC", "Not met"]
]}

Kindly determine if composite z-score recorded for `CC(=O)NCCCC[C@@H]1NC(=O)[C@H]2C[C@@H](C(=O)NCCCCCNC(=O)CS)[C@@H](c3ccc(O)cc3)N2C1=O` is above or exactly 0.4.
Not met

Kindly determine if composite z-score recorded for `O=C1O[C@H](c2ccccc2)[C@H](c2ccccc2)N2[C@H]1[C@@H](C(=O)NC[C@H](O)c1ccccc1)[C@]1(C(=O)Nc3ccc(C#CC4=CCCCC4)cc31)[C@H]2c1ccccc1OCCO` is above or exactly 0.4.
Met
